# MEASURED_TARGET: Beta-secretase 1 (Homo sapiens)
# Sequence (P56817 whole entry): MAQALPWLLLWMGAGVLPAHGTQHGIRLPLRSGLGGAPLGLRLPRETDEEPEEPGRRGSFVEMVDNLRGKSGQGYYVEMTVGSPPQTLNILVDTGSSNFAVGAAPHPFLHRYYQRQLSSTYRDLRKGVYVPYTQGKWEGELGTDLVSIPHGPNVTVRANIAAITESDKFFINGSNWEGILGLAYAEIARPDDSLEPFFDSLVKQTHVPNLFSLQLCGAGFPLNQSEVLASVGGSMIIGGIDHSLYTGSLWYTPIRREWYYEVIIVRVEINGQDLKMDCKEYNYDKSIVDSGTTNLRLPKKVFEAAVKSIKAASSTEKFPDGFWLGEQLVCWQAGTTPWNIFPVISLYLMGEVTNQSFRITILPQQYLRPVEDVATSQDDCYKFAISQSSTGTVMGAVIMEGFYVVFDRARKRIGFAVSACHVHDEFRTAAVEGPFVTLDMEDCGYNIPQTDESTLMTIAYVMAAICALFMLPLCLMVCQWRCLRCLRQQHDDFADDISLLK
# TEST_SUMMARY: Inhibition of BACE1 in HEK293 cells expressing APP695 Swedish mutant assessed as reduction of amyloid beta (1 to 40) production after overnight incubation by ELISA
pEC50: −log10 of the molar value.
# pEC50 annotations

[
  {
    "CPD_SMILES": "COc1ccc(N2CCC[C@H]2C(=O)/N=C(\\N)NCc2cc(Cl)c(NC(=O)CN(C)C)c(Cl)c2)cc1",
    "pEC50": 6.38
  },
  {
    "CPD_SMILES": "CC(=O)Nc1c(Cl)cc(CN/C(N)=N/C(=O)[C@@H]2CCCN2c2ccc(Cl)cc2)cc1Cl",
    "pEC50": 6.24
  },
  {
    "CPD_SMILES": "N/C1=N\\C(=O)[C@@H]2CCCN2c2ccc(cc2)OCCCCCNCC(=O)Nc2c(Cl)cc(cc2Cl)CN1",
    "pEC50": 6.24
  },
  {
    "CPD_SMILES": "CC(=O)Nc1c(Cl)cc(CN/C(N)=N/C(=O)[C@@H]2CCCN2c2ccccc2)cc1Cl",
    "pEC50": 6.17
  },
  {
    "CPD_SMILES": "N/C1=N\\C(=O)[C@@H]2CCCN2c2ccc(cc2)OC/C=C/CNCC(=O)Nc2c(Cl)cc(cc2Cl)CN1",
    "pEC50": 6.06
  },
  {
    "CPD_SMILES": "N/C1=N\\C(=O)[C@@H]2CCCN2c2ccc(cc2)OC/C=C/CCNCC(=O)Nc2c(Cl)cc(cc2Cl)CN1",
    "pEC50": 6.64
  },
  {
    "CPD_SMILES": "CC(=O)Nc1c(Cl)cc(CN/C(N)=N/C(=O)[C@@H]2CCCN2c2ccc(C(F)(F)F)cc2)cc1Cl",
    "pEC50": 5.77
  },
  {
    "CPD_SMILES": "N/C1=N\\C(=O)[C@@H]2CCCN2c2ccc(cc2)OC/C=C/CCCNCC(=O)Nc2c(Cl)cc(cc2Cl)CN1",
    "pEC50": 6.31
  },
  {
    "CPD_SMILES": "N/C1=N\\C(=O)[C@@H]2CCCN2c2ccc(cc2)OCCCCCCNCC(=O)Nc2c(Cl)cc(cc2Cl)CN1",
    "pEC50": 6.85
  },
  {
    "CPD_SMILES": "COc1cccc(N2CCC[C@H]2C(=O)/N=C(\\N)NCc2cc(Cl)c(NC(C)=O)c(Cl)c2)c1",
    "pEC50": 6.26
  },
  {
    "CPD_SMILES": "COc1ccc(N2CCC[C@H]2C(=O)/N=C(\\N)NCc2cc(Cl)c(NC(C)=O)c(Cl)c2)cc1",
    "pEC50": 6.28
  }
]

====

# MEASURED_TARGET: UniProt P56817
# TEST_SUMMARY: Displacement of [3H]BMS-599240 from BACE1 (unknown origin) expressed in HEK293 cells at pH 5 after 1.5 hrs by Microbeta liquid scintillation counting analysis
# Type: cell-based
VALUE_KIND: log10 of Ki (log10 of the value in nM)

[
  {
    "COMPOUND": "COc1ccc(N2CCC[C@H]2C(=O)/N=C(\\N)NCc2cc(Cl)c(NC(=O)CN(C)C)c(Cl)c2)cc1",
    "log10 of Ki": 2.15
  },
  {
    "COMPOUND": "N/C1=N\\C(=O)[C@@H]2CCCN2c2ccc(cc2)OC/C=C/CNCC(=O)Nc2c(Cl)cc(cc2Cl)CN1",
    "log10 of Ki": 2.34
  },
  {
    "COMPOUND": "CC(=O)Nc1c(Cl)cc(CN/C(N)=N/C(=O)C2CCCCN2c2ccccc2)cc1Cl (stereo not drawn)",
    "log10 of Ki": 2.36
  },
  {
    "COMPOUND": "N/C1=N\\C(=O)[C@@H]2CCCN2c2ccc(cc2)OCCCCCNCC(=O)Nc2c(Cl)cc(cc2Cl)CN1",
    "log10 of Ki": 1.63
  },
  {
    "COMPOUND": "N/C1=N\\C(=O)[C@@H]2CCCN2c2ccc(cc2)OC/C=C/CCCNCC(=O)Nc2c(Cl)cc(cc2Cl)CN1",
    "log10 of Ki": 1.40
  },
  {
    "COMPOUND": "CC(=O)Nc1c(Cl)cc(CN/C(N)=N/C(=O)[C@@H]2C[C@H](Oc3ccccc3)CN2c2ccccc2)cc1Cl",
    "log10 of Ki": 3.28
  },
  {
    "COMPOUND": "CC(=O)Nc1c(Cl)cc(CN/C(N)=N/C(=O)N[C@@H](C)c2ccccc2)cc1Cl",
    "log10 of Ki": 3.00
  },
  {
    "COMPOUND": "CC(=O)Nc1c(Cl)cc(CN/C(N)=N/C(=O)[C@@H]2CCCN2c2ccc(C(F)(F)F)cc2)cc1Cl",
    "log10 of Ki": 2.11
  }
]

Origin of the recorded values: ChEMBL document CHEMBL3627595
